Quick reference: pIC50 of the listed items.
# tgt: human P2X3 receptor (Homo sapiens (Human))
# test summary: Evaluation of human P2X3 receptor inhibitory activity (Test Example 1-1, FDSS 3000, 96-well, 50 nM ATP)
# Assay type: cell-based
# run parameters: human P2X3 receptor in C6BU-1 cells; Test Example 1-1 (compounds I-001 to I-300)
Quick note: pIC50 means taking -log10 of the concentration in moles per liter.

Examples with their reported pIC50 follow.
The measured pIC50 that "CCc1oc2ccc(/N=c3\[nH]cc(CNC4CCOCC4)c(=O)n3Cc3ccc(Cl)cc3)cc2c1C" showed for human P2X3 receptor (Homo sapiens (Human)) is 6.65

Known value: human P2X3 receptor (Homo sapiens (Human)) pIC50 of the compound "CCc1oc2ccc(/N=c3\[nH]cc(CN4CCOCC4)c(=O)n3Cc3ccc(Cl)cc3)cc2c1C" equals 6.57

Measured on human P2X3 receptor (Homo sapiens (Human)), "Cc1cc(C(=O)Nc2c[nH]/c(=N\c3ccc(Oc4ccon4)cc3)n(Cc3ccc(Cl)cc3)c2=O)on1" has a documented pIC50 of 6.83

Note: attention shifts to another entry.
Field pIC50 (system: human P2X3 receptor (Homo sapiens (Human))) for entry "O=c1cc[nH]/c(=N\c2ccc(Oc3ccc(F)cn3)cc2)n1Cc1ccc(Cl)cc1" = 6.54

---

Reported pIC50 by item:
# tgt: human P2X3 receptor (Homo sapiens (Human), UniProt P56373)
# Sequence (P56373 whole entry): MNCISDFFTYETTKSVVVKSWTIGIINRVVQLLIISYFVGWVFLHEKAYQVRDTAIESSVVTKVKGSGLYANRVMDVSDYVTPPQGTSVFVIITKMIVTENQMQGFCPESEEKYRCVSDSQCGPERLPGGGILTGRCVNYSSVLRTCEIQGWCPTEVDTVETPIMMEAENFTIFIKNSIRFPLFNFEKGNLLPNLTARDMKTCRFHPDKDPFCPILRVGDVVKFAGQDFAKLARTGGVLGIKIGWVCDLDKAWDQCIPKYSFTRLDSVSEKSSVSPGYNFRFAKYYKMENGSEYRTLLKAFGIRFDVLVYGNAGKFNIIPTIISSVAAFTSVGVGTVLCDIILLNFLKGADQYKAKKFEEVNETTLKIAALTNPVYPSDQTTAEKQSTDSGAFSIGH
# test summary: Evaluation of human P2X3 receptor inhibitory activity (Test Example 1-1, FDSS 3000, 96-well, 50 nM ATP)
# Assay type: cell-based
# run parameters: human P2X3 receptor in C6BU-1 cells; Test Example 1-1 (compounds I-001 to I-300)
Quick note: pIC50 means taking -log10 of the concentration in moles per liter.

// "O=C(Nc1c[nH]/c(=N\c2ccc(Oc3ccon3)cc2)n(Cc2ccc(Cl)cc2)c1=O)c1ccccc1" : pIC50 value = 7.21

Entry "O=C(Nc1c[nH]/c(=N\c2ccc(Oc3ccc(F)cn3)cc2)n(Cc2ccc(Cl)cc2)c1=O)C1COC1" , pIC50 reported as 7.89

More entries:
// sample "CN(C)C(=O)c1c[nH]/c(=N\c2ccc(Oc3cccc(C#N)n3)cc2)n(Cc2ccc(Cl)cc2)c1=O" , its pIC50 was 6.99

So, "CCC(=O)N(CC)c1c[nH]/c(=N\c2ccc(Oc3cccc(C#N)n3)cc2)n(Cc2ccc(Cl)cc2)c1=O" ? Its pIC50 was 7.92

Per the records, this compound ( "CCC(=O)N(C)c1c[nH]/c(=N\c2ccc(Oc3cccc(C#N)n3)cc2)n(Cc2ccc(Cl)cc2)c1=O" ) has pIC50 equal to 7.92

Value of measured pIC50 for the entry "Cc1cc(/N=c2\[nH]cc(NC(=O)C3CCOCC3)c(=O)n2Cc2ccc(Cl)cc2)ccc1Oc1ncccc1F" : 8.52

Value of pIC50 reported for the compound "NC(=O)c1cccc(Oc2ccc(Nc3cc(=O)[nH]c(=O)n3Cc3ccc(Cl)cc3)cc2)n1" is 7.09

---

# tgt: human P2X3 receptor (Homo sapiens (Human), UniProt P56373)
# test summary: Evaluation of human P2X3 receptor inhibitory activity (Test Example 1-1, FDSS 3000, 96-well, 50 nM ATP)
# Assay type: cell-based
# run parameters: human P2X3 receptor in C6BU-1 cells; Test Example 1-1 (compounds I-001 to I-300)
Entries and their measured pIC50 follow.
Scale: pIC50 equals -log10([C]), with [C] in mol/L.

Note to self: pIC50 of Cc1cc(Oc2ccc(/N=c3\[nH]cc(NC(=O)C4CCOCC4)c(=O)n3Cc3ccc(Cl)cc3)cc2F)no1 [Compound I-249] with human P2X3 receptor (Homo sapiens (Human), UniProt P56373) was 8.22

// assay human P2X3 receptor (Homo sapiens (Human), UniProt P56373), entry O=c1c(NC(=O)[C@H]2C[C@@H](F)C2)c[nH]/c(=N\c2ccc(Oc3ccon3)cc2)n1Cc1ccc(Cl)cc1 [Compound I-219] , pIC50 value = 7.85

Item: CCOC(=O)Cc1c[nH]/c(=N\c2ccc3oc(CC)c(C)c3c2)n(Cc2ccc(Cl)cc2)c1=O [Compound I-072] | System: human P2X3 receptor (Homo sapiens (Human), UniProt P56373) | pIC50: 6.64

Item: O=C(NC1CCOCC1)c1cn(Cc2ccc(F)cc2)c(Nc2ccc(Oc3cccc(F)n3)cc2)nc1=O [Compound I-281] | System: human P2X3 receptor (Homo sapiens (Human), UniProt P56373) | pIC50: 7.39

---

# tgt: human P2X3 receptor (Homo sapiens (Human))
# test summary: Evaluation of human P2X3 receptor inhibitory activity (Test Example 1-2, FLIPR 384, 384-well, 150 nM ATP)
# Assay type: cell-based
# run parameters: human P2X3 receptor in C6BU-1 cells; Test Example 1-2 (compounds I-301 to I-483); read-out: P2X3 IC50
Flag rule - IC50 less than 0.09 µM flags Y; the remaining entries get N.

Consider the worked cases shown below.
Asked: I'd appreciate it if you could check whether "CCCn1c(=O)cc(Nc2ccc(Oc3cccc(C#N)c3)c(C)n2)n(Cc2ccc(C)cc2)c1=O" has IC50 smaller than 0.09 µM.
Given back: Y

Asked: Criterion: IC50 strictly below 0.09 µM. Is it met by "CCOc1cn(Cc2ccc(Cl)cc2)c(Nc2ccc(Oc3cccc(C#N)n3)cc2)nc1=O" ?
Given back: N

Asked: Criterion: IC50 strictly below 0.09 µM. Is it met by "CC(C)c1c[nH]/c(=N\c2ccc(Oc3cccc(C#N)n3)cc2)n(Cc2ccc(Cl)cc2)c1=O" ?
Given back: N

Asked: Lab note: IC50 threshold 0.09 µM. Does this molecule come in strictly under it? "COC(=O)c1cc(Oc2ccc(/N=c3\[nH]cc(Nc4ccon4)c(=O)n3Cc3ccc(Cl)cc3)cc2)ccn1"
Given back: Y

Next:
Asked: Does the reported IC50 of the following molecule sit strictly below 0.09 µM? "O=C(NC[C@H]1CCCO1)c1cn(Cc2ccc(Cl)cc2)c(Nc2ccc(Oc3cccc(F)n3)cc2)nc1=O"
Given back: Y

Asked: Given "O=C(NC1CCCC1)c1cn(Cc2ccc(Cl)cc2)c(Nc2ccc(Oc3cccc(F)n3)cc2)nc1=O" , is recorded IC50 strictly lower than 0.09 µM?
Given back: Y

---

# tgt: human P2X3 receptor (Homo sapiens (Human))
# test summary: Evaluation of human P2X3 receptor inhibitory activity (Test Example 1-1, FDSS 3000, 96-well, 50 nM ATP)
# Format: cell-based
# run parameters: human P2X3 receptor in C6BU-1 cells; Test Example 1-1 (compounds I-001 to I-300)
pIC50: −log10 of the molar value.
Record Yes whenever pIC50 is at 8 or higher; record No when lower.

These solved cases illustrate the format of a correct answer.
Asked: State whether the measured pIC50 reaches 8, counting equality as reaching it, for "CCn1c(=O)cc(Nc2ccc(Oc3ccc(C(=O)O)cc3)cn2)n(Cc2ccc(Cl)cc2)c1=O"
Given back: No

Asked: Please check the record "CCC(=O)Nc1c[nH]/c(=N\c2ccc(Oc3ccnc(C(=O)OC)c3)cc2)n(Cc2ccc(Cl)cn2)c1=O" and state if its pIC50 is at or above 8.
Given back: No

Asked: Check this molecule for pIC50 at or above 8: "CNC(=O)c1c[nH]/c(=N\c2ccc(Oc3nc(C)ns3)cc2)n(Cc2ccc(Cl)cc2)c1=O"
Given back: No

Now consider a different molecule.
Asked: Dear colleague, could you confirm whether "Cc1cncc(Oc2ccc(Nc3ncc(NC(=O)C4CCOCC4)c(=O)n3Cc3ccc(Cl)cc3)cc2)n1" has pIC50 at or above 8?
Given back: Yes

---

# tgt: human P2X3 receptor (Homo sapiens (Human))
# test summary: Evaluation of human P2X3 receptor inhibitory activity (Test Example 1-2, FLIPR 384, 384-well, 150 nM ATP)
# Format: cell-based
# run parameters: human P2X3 receptor in C6BU-1 cells; Test Example 1-2 (compounds I-301 to I-483); read-out: P2X3 IC50
measurement label: pIC50
Scale note: pIC50 = -log10(concentration in M).

Record summary for "O=C(Nc1cnoc1)c1cn(Cc2ccc(Cl)cc2)c(Nc2ccc(Oc3cccc(F)n3)cc2)nc1=O" : reported pIC50 = 7.25

What the record says about O=C(NCC1CCCCO1)c1cn(Cc2ccc(Cl)cc2)c(Nc2ccc(Oc3cccc(F)n3)cc2)nc1=O (stereo not shown) : pIC50 is 7.54

Quick note, pIC50 for "Cn1nccc1NC(=O)c1cn(Cc2ccc(Cl)cc2)c(Nc2ccc(Oc3cccc(F)n3)cc2)nc1=O" landed at 7.52

Looking up "CC(C)n1ccc(Nc2ccc(Oc3cccc(C(=O)O)n3)cc2)c(Cc2ccc(Cl)cc2)c1=O" , I found its pIC50 recorded as 6.22

Notebook: "O=C(Nc1ccon1)c1cn(Cc2ccc(Cl)cc2)c(Nc2ccc(Oc3cccc(F)n3)cc2)nc1=O" , pIC50 read as 7.29

Others:
compound "CC(C)(C)c1c[nH]/c(=N\c2ccc(Oc3cccc(C(N)=O)n3)cc2)n(Cc2ccc(Cl)cc2)c1=O" , pIC50 observed: 6.60

The reported value for "O=C(N[C@@H]1CCOC1)c1cn(Cc2ccc(Cl)cc2)c(Nc2ccc(Oc3cccc(F)n3)cc2)nc1=O" in terms of pIC50 is 7.66
